Measured phosphorylation enrichment values are reported for all entries that follow.
# TGT: Jak2 (UniProt O60674)
# Sequence (O60674 whole entry, looked up): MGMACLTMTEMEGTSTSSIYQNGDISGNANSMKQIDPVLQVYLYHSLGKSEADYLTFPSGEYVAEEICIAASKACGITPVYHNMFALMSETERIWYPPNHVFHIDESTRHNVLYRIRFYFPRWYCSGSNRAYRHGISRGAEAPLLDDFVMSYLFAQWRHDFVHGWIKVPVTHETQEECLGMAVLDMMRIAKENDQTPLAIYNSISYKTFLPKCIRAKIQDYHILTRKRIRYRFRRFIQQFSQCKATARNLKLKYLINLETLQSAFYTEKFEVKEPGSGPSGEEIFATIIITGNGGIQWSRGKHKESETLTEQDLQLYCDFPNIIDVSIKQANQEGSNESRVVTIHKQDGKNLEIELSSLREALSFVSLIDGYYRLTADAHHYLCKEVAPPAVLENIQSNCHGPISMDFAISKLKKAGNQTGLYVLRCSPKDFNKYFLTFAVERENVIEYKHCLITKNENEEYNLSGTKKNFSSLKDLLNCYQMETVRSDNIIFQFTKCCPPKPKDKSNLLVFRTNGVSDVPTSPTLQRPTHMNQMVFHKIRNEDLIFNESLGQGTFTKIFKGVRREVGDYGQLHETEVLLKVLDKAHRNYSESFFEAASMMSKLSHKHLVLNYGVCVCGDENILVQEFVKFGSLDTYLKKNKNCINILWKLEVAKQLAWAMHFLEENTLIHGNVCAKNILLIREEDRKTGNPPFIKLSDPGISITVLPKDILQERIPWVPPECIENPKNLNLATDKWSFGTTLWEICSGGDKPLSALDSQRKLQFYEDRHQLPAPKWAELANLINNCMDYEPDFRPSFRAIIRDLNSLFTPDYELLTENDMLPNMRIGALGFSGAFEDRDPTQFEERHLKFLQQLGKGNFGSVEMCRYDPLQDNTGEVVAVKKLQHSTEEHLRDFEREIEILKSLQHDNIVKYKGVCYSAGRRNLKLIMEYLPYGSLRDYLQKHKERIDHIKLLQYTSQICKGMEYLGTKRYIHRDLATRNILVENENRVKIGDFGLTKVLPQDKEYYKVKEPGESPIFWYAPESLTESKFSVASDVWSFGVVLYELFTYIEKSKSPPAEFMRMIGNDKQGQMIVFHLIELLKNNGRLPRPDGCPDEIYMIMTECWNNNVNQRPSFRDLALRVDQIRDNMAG
# EXPERIMENT: phosphorylation enrichment, bacterial display (enrichment ratio); higher = better substrate or ligand; peptides without Tyr show the background
I'd appreciate a reply containing only the number, no unit.

Use the examples below as a reference point.
| CHAIN | phosphorylation enrichment |
| --- | --- |
| KSPDSYQKILP [ATM_Y1415_L1420P] | 0.519 |
| QDIMAYRSREV [BCL6_Y157_G159S] | 0.759 |
| IVEFAYNDKAV [PUM3_Y259_I264V_YF] | 0.968 |
| DDEENYENVPR [FCRL3_Y722] | 1.11 |

Using the record for FLTQHYDAIPQ [ANG_Y38_K41I] , state its measured phosphorylation enrichment.
0.608

###

# TGT: EPHB1 (UniProt P54762)
# Sequence (P54762 whole entry, looked up): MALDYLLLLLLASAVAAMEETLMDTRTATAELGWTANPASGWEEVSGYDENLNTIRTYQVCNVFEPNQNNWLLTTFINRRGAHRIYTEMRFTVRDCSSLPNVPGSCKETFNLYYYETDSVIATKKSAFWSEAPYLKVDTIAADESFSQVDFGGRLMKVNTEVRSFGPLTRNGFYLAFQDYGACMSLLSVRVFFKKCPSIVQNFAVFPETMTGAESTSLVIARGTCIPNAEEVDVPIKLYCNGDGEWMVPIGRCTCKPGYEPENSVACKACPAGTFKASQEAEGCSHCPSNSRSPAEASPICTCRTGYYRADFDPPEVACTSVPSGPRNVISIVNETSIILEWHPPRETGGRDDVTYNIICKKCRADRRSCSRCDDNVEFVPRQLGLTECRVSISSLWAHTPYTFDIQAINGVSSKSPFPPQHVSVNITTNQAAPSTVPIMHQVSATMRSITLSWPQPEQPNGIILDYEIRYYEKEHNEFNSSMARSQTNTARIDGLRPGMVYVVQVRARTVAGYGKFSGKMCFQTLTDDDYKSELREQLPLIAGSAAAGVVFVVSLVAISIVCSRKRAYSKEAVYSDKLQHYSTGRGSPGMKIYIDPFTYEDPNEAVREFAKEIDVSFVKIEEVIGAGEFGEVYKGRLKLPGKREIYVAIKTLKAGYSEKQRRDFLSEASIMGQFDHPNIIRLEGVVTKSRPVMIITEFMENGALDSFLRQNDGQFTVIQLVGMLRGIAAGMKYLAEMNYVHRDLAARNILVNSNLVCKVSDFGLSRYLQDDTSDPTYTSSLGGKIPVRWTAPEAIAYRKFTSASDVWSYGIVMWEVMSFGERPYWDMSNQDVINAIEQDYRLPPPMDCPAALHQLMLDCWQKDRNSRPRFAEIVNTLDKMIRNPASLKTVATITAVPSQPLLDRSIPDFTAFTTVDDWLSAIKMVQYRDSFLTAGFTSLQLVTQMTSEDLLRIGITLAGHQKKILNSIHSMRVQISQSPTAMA
# EXPERIMENT: phosphorylation enrichment, bacterial display (enrichment ratio); higher = better substrate or ligand; peptides without Tyr show the background
Everything with phosphorylation enrichment lower than 0.5 is Not satisfied; everything else, including exactly 0.5, is Satisfied.

Solved cases (6 shown):
| CHAIN | LABEL_CLASS |
| --- | --- |
| PHMQTYEVDHN [SDHB_Y61_L65H] | Satisfied |
| WHHTFYNEPRV [ACTA1_Y93_L96P] | Satisfied |
| TGEKLYQHKEF [ZNF283_Y627_R629H] | Not satisfied |
| LEIETYRRLLD [KRT12_Y429] | Satisfied |
| HVIKLFGACSQ [RET_Y791_Y791F] | Satisfied |
| SLNAVYPRAGR [OAS3_Y376_S381R] | Not satisfied |

In the following, a different sequence is considered.
Identify whether the reported phosphorylation enrichment of the following sequence is 0.5 or greater: QNTGFYFDLFG [PTPN11_Y62_D61Y_YF]
Satisfied

###

# TGT: c-Src SH2
# EXPERIMENT: SH2 binding enrichment of the phosphorylated peptide, bacterial display (enrichment ratio); higher = better substrate or ligand; peptides without Tyr show the background
Everything with SH2 binding enrichment lower than 0.6 is Not fulfilled; everything else, including exactly 0.6, is Fulfilled.

| CHAIN | TGT | LABEL_CLASS |
| --- | --- | --- |
| IVEFAYNDKAV [PUM3_Y259_I264V_YF] | c-Src SH2 | Not fulfilled |

Identify whether the reported SH2 binding enrichment of the following sequence is 0.6 or greater: FPHVISARLWR [SMAD4_Y95_Y95S]
Not fulfilled

Identify whether the reported SH2 binding enrichment of the following sequence is 0.6 or greater: KLQKKYGPISS [CYP17A1_Y60_Y64S]
Not fulfilled

Identify whether the reported SH2 binding enrichment of the following sequence is 0.6 or greater: SASSSYSRSRS [SRRM4_Y549_R547S]
Not fulfilled

Identify whether the reported SH2 binding enrichment of the following sequence is 0.6 or greater: STDDGYIDLQF [TMEM230_Y29]
Fulfilled

Identify whether the reported SH2 binding enrichment of the following sequence is 0.6 or greater: HSVVQYVGGVM [FGGY_Y136_L134V]
Not fulfilled

###

# TGT: EPHB1 (UniProt P54762)
# EXPERIMENT: phosphorylation enrichment, bacterial display (enrichment ratio); higher = better substrate or ligand; peptides without Tyr show the background
READOUT_NAME: phosphorylation enrichment
I'd appreciate a reply containing only the number, no unit.

Use the examples below as a reference point.
| CHAIN | phosphorylation enrichment |
| --- | --- |
| DLDATYRPMFS [JUP_Y701_M697L_YF] | 0.636 |
| ATGGFYSYGGG [KRT24_Y120] | 0.881 |

Quote EPHB1 (UniProt P54762) phosphorylation enrichment for entry DALDNYVVRGV [PCCA_Y473_I475V] .
0.499

Quote EPHB1 (UniProt P54762) phosphorylation enrichment for entry LKALKYKSMKI [ITGA11_Y1098] .
0.299

Quote EPHB1 (UniProt P54762) phosphorylation enrichment for entry KTSGNYLPVTG [WDR19_Y28_A30P] .
0.474

Quote EPHB1 (UniProt P54762) phosphorylation enrichment for entry SIKDKYVTVLY [KCNH2_Y611_A614V] .
0.519

Quote EPHB1 (UniProt P54762) phosphorylation enrichment for entry LLKKIYLMLDN [STAT1_Y203_M202I] .
1.15

Quote EPHB1 (UniProt P54762) phosphorylation enrichment for entry GSLEDYVRETN [GIMAP6_Y176] .
0.438

Quote EPHB1 (UniProt P54762) phosphorylation enrichment for entry GAVDTYCRHNF [HLA-DRB1_Y107_A102G_YF] .
0.695

Quote EPHB1 (UniProt P54762) phosphorylation enrichment for entry ERLWVYGMSSS [F8_Y1728_D1727V] .
0.669

Quote EPHB1 (UniProt P54762) phosphorylation enrichment for entry LINLKYSVEEE [PCDH19_Y27] .
0.755

Quote EPHB1 (UniProt P54762) phosphorylation enrichment for entry GEPLSYTRFSL [TFRC_Y20] .
0.438

Quote EPHB1 (UniProt P54762) phosphorylation enrichment for entry CTTIHDNYMCN [TP53_Y234_Y234D] .
0.521

Quote EPHB1 (UniProt P54762) phosphorylation enrichment for entry TKLKDYFIFNK [CCDC42_Y149_A144T_YF] .
0.52

###

# TGT: FGFR3 (UniProt P22607)
# Sequence (P22607 whole entry, looked up): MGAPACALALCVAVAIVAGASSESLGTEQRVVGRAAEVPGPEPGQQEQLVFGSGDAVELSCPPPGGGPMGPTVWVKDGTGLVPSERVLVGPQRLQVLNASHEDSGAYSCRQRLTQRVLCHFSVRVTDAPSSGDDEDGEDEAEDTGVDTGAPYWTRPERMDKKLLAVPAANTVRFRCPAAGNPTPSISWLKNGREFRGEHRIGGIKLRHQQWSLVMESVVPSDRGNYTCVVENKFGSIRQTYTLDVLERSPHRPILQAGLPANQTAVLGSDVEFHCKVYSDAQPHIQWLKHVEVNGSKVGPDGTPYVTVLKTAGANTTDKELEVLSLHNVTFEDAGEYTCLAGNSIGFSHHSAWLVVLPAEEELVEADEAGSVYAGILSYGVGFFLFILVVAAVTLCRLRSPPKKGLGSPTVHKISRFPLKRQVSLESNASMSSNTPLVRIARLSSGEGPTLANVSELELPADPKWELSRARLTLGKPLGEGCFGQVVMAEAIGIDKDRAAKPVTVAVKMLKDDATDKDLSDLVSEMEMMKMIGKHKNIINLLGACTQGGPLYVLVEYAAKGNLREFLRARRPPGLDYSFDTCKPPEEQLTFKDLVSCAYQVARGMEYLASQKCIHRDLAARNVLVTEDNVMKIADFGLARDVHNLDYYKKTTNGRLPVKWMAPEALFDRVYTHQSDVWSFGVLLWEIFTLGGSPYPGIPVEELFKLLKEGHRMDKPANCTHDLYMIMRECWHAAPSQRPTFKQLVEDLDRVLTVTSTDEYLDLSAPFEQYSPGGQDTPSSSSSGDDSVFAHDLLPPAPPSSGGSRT
# EXPERIMENT: phosphorylation enrichment, bacterial display (enrichment ratio); higher = better substrate or ligand; peptides without Tyr show the background
READOUT_NAME: phosphorylation enrichment
I'd appreciate a reply containing only the number, no unit.

Use the examples below as a reference point.
| CHAIN | QUANTITATIVE_RESULT |
| --- | --- |
| NDTAGYFVIGG [SEL1L3_Y399_I401V] | 1.64 |
| QKFMAYPSQGG [HLCS_Y236_L237P] | 0.484 |
| EITSHYRHLLR [ZBTB46_Y14] | 0.517 |
| FSGDFYRIQGR [DDR2_Y741_YF] | 0.594 |
| GGSTYYIDTNA [ACTL6A_Y69_P66S] | 0.719 |
| VKPENYRRLDV [VHL_Y175_I180V] | 0.506 |

Using the record for IVKAFYVRARA [AIPL1_Y268_YF] , state its measured phosphorylation enrichment.
0.688

Using the record for FADIAYNYRHA [PAH_Y166_G171A] , state its measured phosphorylation enrichment.
0.542

Using the record for ENAGFYFRVSA , state its measured phosphorylation enrichment.
1.1

Using the record for AEPDIYQEKLS [USP54_Y1233] , state its measured phosphorylation enrichment.
0.623

Using the record for DAAEDYAEGVR [DHODH_Y194] , state its measured phosphorylation enrichment.
0.746

###

# TGT: SHP2-C SH2
# EXPERIMENT: SH2 binding enrichment of the phosphorylated peptide, bacterial display (enrichment ratio); higher = better substrate or ligand; peptides without Tyr show the background
Everything with SH2 binding enrichment lower than 0.8 is NO; everything else, including exactly 0.8, is YES.

Solved cases (5 shown):
| CHAIN | LABEL_CLASS |
| --- | --- |
| RRNTYYASIAK [ACADM_Y353] | YES |
| QSAGQYSSQGL [TNNI3K_Y788] | YES |
| KPNMNYDKLSR [FLI1_Y332] | NO |
| PSDSGYSFETI [MAP1B_Y1921_YF] | YES |
| ATLDVYNPFET [SCAMP3_Y41] | NO |

Identify whether the reported SH2 binding enrichment of the following sequence is 0.8 or greater: DPASAYADEVK [ETNPPL_Y189_S185P]
NO

Identify whether the reported SH2 binding enrichment of the following sequence is 0.8 or greater: NTTIHYNYMCN [TP53_Y234_C229N]
YES

Identify whether the reported SH2 binding enrichment of the following sequence is 0.8 or greater: TFWKKYCTFWK [CCDC70_Y125_R126C]
NO

Identify whether the reported SH2 binding enrichment of the following sequence is 0.8 or greater: LTFPDYLPCSV [SAG_Y129]
NO

Identify whether the reported SH2 binding enrichment of the following sequence is 0.8 or greater: YLRTGYSIPYG [TGM1_Y370_V372I]
YES

Identify whether the reported SH2 binding enrichment of the following sequence is 0.8 or greater: WNEVGYDDIGG [VCP_Y203_L198W]
NO

Identify whether the reported SH2 binding enrichment of the following sequence is 0.8 or greater: GSTLSYFGLAT [P2RX7_Y343_A348T]
NO

Identify whether the reported SH2 binding enrichment of the following sequence is 0.8 or greater: AGADGYDYLAP [FOXL2_Y186_G187D]
NO

Identify whether the reported SH2 binding enrichment of the following sequence is 0.8 or greater: ENRLDYGSAWA [AR_Y395_P392R]
NO

Identify whether the reported SH2 binding enrichment of the following sequence is 0.8 or greater: NGTVTYAIVAG [CDH23_Y1672]
YES

Identify whether the reported SH2 binding enrichment of the following sequence is 0.8 or greater: TKFRNYLIPKG [CYP2C8_Y379]
YES

Identify whether the reported SH2 binding enrichment of the following sequence is 0.8 or greater: EKIANYKEGTY [CLRN1_Y171]
NO

Identify whether the reported SH2 binding enrichment of the following sequence is 0.8 or greater: TKDTFYKQRMF [GBA_Y451_P454R]
NO

Identify whether the reported SH2 binding enrichment of the following sequence is 0.8 or greater: IFKAAYFGVFD [SLC25A4_Y191_R188K_YF]
NO

Identify whether the reported SH2 binding enrichment of the following sequence is 0.8 or greater: MSRDVYSTDYY [NTRK2_Y702]
NO

Identify whether the reported SH2 binding enrichment of the following sequence is 0.8 or greater: KQINDYVEKGT [SERPINA1_Y184]
NO

Identify whether the reported SH2 binding enrichment of the following sequence is 0.8 or greater: VEDPEYAVTQL [STOML2_Y124]
YES

Identify whether the reported SH2 binding enrichment of the following sequence is 0.8 or greater: RPSELYYSKIS [SMG1_Y2253_G2258S]
YES

Identify whether the reported SH2 binding enrichment of the following sequence is 0.8 or greater: PDNKPYIFKVF [PIK3AP1_Y553_E551K]
YES

Identify whether the reported SH2 binding enrichment of the following sequence is 0.8 or greater: LEIETYRRLLD [KRT12_Y429]
NO
